Assay: Single administration toxicity test on mice
Type: in vivo, mouse
Conditions: in vivo; mouse, intravenous
MEASUREMENT_KIND: LD50

Reported LD50 for `C[C@@H]([C@@H](C)O)[C@@H](O)C(=O)N[C@@](C)(CO)C(=O)O` was > 500 mg/kg
